As shown below, each of these molecules has a reported Potency value.
Assay: qHTS profiling for inhibitors of Plasmodium falciparum proliferation (AID 504749); further: nearly all actives have a fitted effect of over 60% in size; further: potency means the concentration at half of the fitted maximal effect
Conditions: P. falciparum in erythrocytes, SYBR Green DNA, 72 h; parasite line A
Records with an inconclusive call do not appear. The source made the active and inactive calls. The call rests on the fitted dose curve; in most records, active means well fitted inhibition curve with a large enough effect; inconclusive means small, poorly fitted or top-dose-only effect; inactive means flat fitted curve, though single readings scatter.

{"molecule": "CO[C@H]1OC2O[C@@]3(C)CC[C@H]4[C@H](C)CC[C@@H]([C@H]1C)[C@@]24OO3 (stereo not given in full)", "Potency": "25.1 nM (active)"}

INPUT: Would you kindly share the measured Potency for C=C[C@H]1CN2CCC1C[C@H]2[C@H](O)c1ccnc2ccc(OC)cc12 (stereo not given in full) ?
OUTPUT: 141 nM (active)

INPUT: Same question, CC(C)C(=O)OCC(=O)[C@@]12OC(C3CCCCC3)O[C@@H]1CC1C3CCC4=CC(=O)C=C[C@]4(C)C3[C@@H](O)C[C@@]12C (stereo not given in full) this time
OUTPUT: 794 nM (active)

INPUT: Next: Clc1ccc(CS[C@@H](Cn2ccnc2)c2ccc(Cl)cc2Cl)cc1
OUTPUT: 3160 nM (active)

INPUT: What about CC(C)C[C@@H](NC(=O)[C@@H](Cc1ccccc1)NC(=O)c1cnccn1)B(O)O ?
OUTPUT: 79.4 nM (active)

---

Experiment: AP1 Signaling Pathway (AID 357);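 further: ME-180 reporter cells stimulated with EGF at its EC50 level; on the % scale 0 is the no-effect control and ±100 the full control effect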
Conditions: ME-180 (cervical carcinoma) AP-1-bla reporter, EGF-induced, beta-lactamase ratio, 5 h; at 17.2 µM (top of the series) unless noted
Inconclusive results are not listed.
Reported activity change, negative = inhibition values are given for each entry in this list.
Unit % implied. Number only.

{"compound": "CCOc1ccc(-c2nnc3sc(-c4ccccc4OC)nn23)cc1", "unit": "%", "activity change, negative = inhibition": 18}
{"compound": "CC(C)N1CCc2c(sc(N)c2C#N)C1", "unit": "%", "activity change, negative = inhibition": 5.12}
{"compound": "CCn1cc(/C=N/O)c(C)n1", "unit": "%", "activity change, negative = inhibition": -0.439}
{"compound": "COc1cc(=O)n2c(-c3ccccc3)csc2n1", "unit": "%", "activity change, negative = inhibition": 6.57}
{"compound": "Cc1nc2c(c(=O)n1CC1CCCO1)c1nc3ccccc3nc1n2Cc1ccc2c(c1)OCO2 (stereo not drawn)", "unit": "%", "activity change, negative = inhibition": 1.65}
{"compound": "O=C(N(c1ccccc1)c1ccccc1)n1ccnc1", "unit": "%", "activity change, negative = inhibition": 7.1}
{"compound": "CCN(CC)C(=O)CSC1=C(C#N)C(c2cccs2)C=C(C)N1 (stereo not drawn)", "unit": "%", "activity change, negative = inhibition": -28.4}
{"compound": "COC(=O)CSc1nnc2n(-c3ccc(OC)cc3)c(=O)c3c4c(sc3n12)CCCCC4", "unit": "%", "activity change, negative = inhibition": -16}

Would you kindly look at the next entry?
INPUT: // returns reported activity change, negative = inhibition for input CCc1nnc(NC(=O)c2c(O)c3c([nH]c2=O)CCCC3)s1
OUTPUT: -9.97

---

Tested on: Dd2
Test: qHTS profiling for inhibitors of Plasmodium falciparum proliferation (AID 504749); further: nearly all actives have a fitted effect of over 60% in size; further: potency means the concentration at half of the fitted maximal effect
Conditions: P. falciparum in erythrocytes, SYBR Green DNA, 72 h; series mostly up to 28.7 µM
Inconclusive results are not listed. Calls of active or inactive are those of the source. Calls come from the whole dose curve; as a rule, active = well fitted inhibition curve with a large enough effect; inconclusive = small, poorly fitted or top-dose-only effect; inactive = flat fitted curve, though single readings scatter.
measure_name: Potency

Observe how each entry below is paired with its result.
{"compound": "C[C@]12CC[C@@H]3c4ccc(O)cc4C[C@@H](CCCCCCCCCS(=O)CCCC(F)(F)C(F)(F)F)C3[C@@H]1CC[C@@H]2O (stereo not given in full)", "Potency": "7080 nM (active)"}
{"compound": "CCC1OC(=O)C[C@H](O)C(C)[C@@H](O[C@@H]2OC(C)C(O)C(N(C)C)C2O)C(CCN2CC(C)CC(C)C2)CC(C)C(=O)/C=C/C(C)=C\\[C@@H]1COC1OC(C)C(O)C(OC)C1OC (stereo not given in full)", "Potency": "3980 nM (active)"}
{"compound": "C[C@@H]1C(SC2Cn3cnc[n+]3C2)=C(C(=O)[O-])N2C(=O)[C@H]([C@@H](C)O)[C@@H]12 (stereo not given in full)", "Potency": "inactive"}
{"compound": "COc1ccc2cc1Oc1cc3c(cc1OC)CC[N+](C)(C)C3Cc1ccc(cc1)Oc1c(OC)c(OC)cc3c1C(C2)[N+](C)(C)CC3 (stereo not given)", "Potency": "inactive"}
{"compound": "CCCC(=O)Nc1c(I)cc(I)c(C[C@H](CC)C(=O)O)c1I", "Potency": "inactive"}

INPUT: Given the compound CN(C)CC[C@@](O)(c1ccccc1)c1ccccc1Cl , what is its reported Potency?
OUTPUT: 2000 nM (active)

INPUT: Cool, now COC(=O)C1C2CC3c4[nH]c5cc(OC)ccc5c4CCN3CC2CC(OC)C1OC (stereo not given)
OUTPUT: inactive

INPUT: # repeat for O=C1CC[C@H](C(=O)N[C@@H]2C[C@H]2c2ccccc2)N1
OUTPUT: inactive

INPUT: Another compound to check: CCC(=O)OC1C(N(C)C)CC(C)O[C@H]1O[C@H]1[C@H](C)[C@@H](O[C@H]2CC(OC)[C@@H](O)C(C)O2)[C@H](C)C(=O)O[C@@H](CC)[C@](C)(O)[C@@H](O)[C@H](C)C(=O)[C@@H](C)C[C@]1(C)O (stereo not given in full)
OUTPUT: 12600 nM (active)

INPUT: What about this compound? CC1CN(c2c(F)c(N)c3c(=O)c(C(=O)O)cn(C4CC4)c3c2F)CC(C)N1 (stereo not given)
OUTPUT: inactive

INPUT: What do we get for CC(CCC(=O)O)C1CCC2C3C(=O)C[C@@H]4CC(=O)CC[C@@]4(C)C3CC(=O)[C@]12C (stereo not given in full) ?
OUTPUT: inactive

INPUT: Note, next up: CC1CCC(O)C/C1=C\C=C1/CCCC2(C)C1CCC2C(C)/C=C/C(C)C(C)C (stereo not given)
OUTPUT: inactive

INPUT: Ok, now CC[C@]1([C@H]2O[C@@H]([C@@H]3O[C@](O)(CO)[C@@H](C)C[C@H]3C)C[C@H]2C)CC[C@@H]([C@]2(C)CC[C@@]3(C[C@@H](O)[C@@H](C)[C@@H]([C@H](C)[C@H](OC)[C@H](C)C(=O)O)O3)O2)O1
OUTPUT: 39.8 nM (active)

INPUT: Note, next up: CO[C@H]1C[C@@H]2CC[C@@H](C)[C@@](O)(O2)C(=O)C(=O)N2CCCC[C@H]2C(=O)O[C@H]([C@H](C)C[C@@H]2CC[C@@H](O)[C@H](OC)C2)CC(=O)[C@H](C)/C=C(\C)[C@@H](O)[C@@H](OC)C(=O)[C@H](C)C[C@H](C)/C=C/C=C/C=C/1C
OUTPUT: 2820 nM (active)

INPUT: Now the same for CCOc1ccccc1O[C@@H](c1ccccc1)[C@@H]1CNCCO1
OUTPUT: 79.4 nM (active)
